# target.desc: butyrylcholinesterase (BChE) (Equus caballus, UniProt P81908)
# Construct: BChE was purified from equine serum
# Sequence (P81908 whole entry): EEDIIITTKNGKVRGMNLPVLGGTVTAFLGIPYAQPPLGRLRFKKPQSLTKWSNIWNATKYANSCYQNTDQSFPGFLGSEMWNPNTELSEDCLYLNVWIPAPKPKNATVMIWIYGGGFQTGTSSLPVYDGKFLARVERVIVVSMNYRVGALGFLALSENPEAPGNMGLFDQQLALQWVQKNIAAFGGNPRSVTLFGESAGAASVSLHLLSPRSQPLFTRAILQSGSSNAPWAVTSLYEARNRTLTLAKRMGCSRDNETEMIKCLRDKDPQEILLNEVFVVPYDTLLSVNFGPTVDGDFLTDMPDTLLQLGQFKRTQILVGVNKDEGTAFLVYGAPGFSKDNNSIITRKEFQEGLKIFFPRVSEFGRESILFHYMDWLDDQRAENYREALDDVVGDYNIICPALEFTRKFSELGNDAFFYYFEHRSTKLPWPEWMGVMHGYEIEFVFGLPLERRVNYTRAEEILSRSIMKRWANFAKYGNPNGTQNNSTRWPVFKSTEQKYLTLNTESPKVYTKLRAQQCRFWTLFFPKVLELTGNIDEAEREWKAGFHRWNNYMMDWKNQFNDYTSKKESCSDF
# assay: biochemical

| molecule | display.unit | IC50 |
| --- | --- | --- |
| O=C(O)[C@H]1O[C@@H](Oc2cc3oc(-c4ccccc4)cc(=O)c3c(O)c2O)[C@H](O)[C@@H](O)[C@@H]1O [Baicalin hydrate, baicalin hydrate] | nM | 12.3 |

----------
# target.desc: hCA II isoenzyme (Homo sapiens, UniProt P00918)

| molecule | Ki, µM |
| --- | --- |
| O=C(O)[C@H]1O[C@@H](Oc2cc3oc(-c4ccccc4)cc(=O)c3c(O)c2O)[C@H](O)[C@@H](O)[C@@H]1O [Baicalin hydrate, baicalin hydrate] | 0.0193 |
